MEASUREMENT_TARGET: baculovirus-expressed ALK (Homo sapiens)
Construct: host or cells: baculovirus expression system
Sequence (Q9UM73 19-1620): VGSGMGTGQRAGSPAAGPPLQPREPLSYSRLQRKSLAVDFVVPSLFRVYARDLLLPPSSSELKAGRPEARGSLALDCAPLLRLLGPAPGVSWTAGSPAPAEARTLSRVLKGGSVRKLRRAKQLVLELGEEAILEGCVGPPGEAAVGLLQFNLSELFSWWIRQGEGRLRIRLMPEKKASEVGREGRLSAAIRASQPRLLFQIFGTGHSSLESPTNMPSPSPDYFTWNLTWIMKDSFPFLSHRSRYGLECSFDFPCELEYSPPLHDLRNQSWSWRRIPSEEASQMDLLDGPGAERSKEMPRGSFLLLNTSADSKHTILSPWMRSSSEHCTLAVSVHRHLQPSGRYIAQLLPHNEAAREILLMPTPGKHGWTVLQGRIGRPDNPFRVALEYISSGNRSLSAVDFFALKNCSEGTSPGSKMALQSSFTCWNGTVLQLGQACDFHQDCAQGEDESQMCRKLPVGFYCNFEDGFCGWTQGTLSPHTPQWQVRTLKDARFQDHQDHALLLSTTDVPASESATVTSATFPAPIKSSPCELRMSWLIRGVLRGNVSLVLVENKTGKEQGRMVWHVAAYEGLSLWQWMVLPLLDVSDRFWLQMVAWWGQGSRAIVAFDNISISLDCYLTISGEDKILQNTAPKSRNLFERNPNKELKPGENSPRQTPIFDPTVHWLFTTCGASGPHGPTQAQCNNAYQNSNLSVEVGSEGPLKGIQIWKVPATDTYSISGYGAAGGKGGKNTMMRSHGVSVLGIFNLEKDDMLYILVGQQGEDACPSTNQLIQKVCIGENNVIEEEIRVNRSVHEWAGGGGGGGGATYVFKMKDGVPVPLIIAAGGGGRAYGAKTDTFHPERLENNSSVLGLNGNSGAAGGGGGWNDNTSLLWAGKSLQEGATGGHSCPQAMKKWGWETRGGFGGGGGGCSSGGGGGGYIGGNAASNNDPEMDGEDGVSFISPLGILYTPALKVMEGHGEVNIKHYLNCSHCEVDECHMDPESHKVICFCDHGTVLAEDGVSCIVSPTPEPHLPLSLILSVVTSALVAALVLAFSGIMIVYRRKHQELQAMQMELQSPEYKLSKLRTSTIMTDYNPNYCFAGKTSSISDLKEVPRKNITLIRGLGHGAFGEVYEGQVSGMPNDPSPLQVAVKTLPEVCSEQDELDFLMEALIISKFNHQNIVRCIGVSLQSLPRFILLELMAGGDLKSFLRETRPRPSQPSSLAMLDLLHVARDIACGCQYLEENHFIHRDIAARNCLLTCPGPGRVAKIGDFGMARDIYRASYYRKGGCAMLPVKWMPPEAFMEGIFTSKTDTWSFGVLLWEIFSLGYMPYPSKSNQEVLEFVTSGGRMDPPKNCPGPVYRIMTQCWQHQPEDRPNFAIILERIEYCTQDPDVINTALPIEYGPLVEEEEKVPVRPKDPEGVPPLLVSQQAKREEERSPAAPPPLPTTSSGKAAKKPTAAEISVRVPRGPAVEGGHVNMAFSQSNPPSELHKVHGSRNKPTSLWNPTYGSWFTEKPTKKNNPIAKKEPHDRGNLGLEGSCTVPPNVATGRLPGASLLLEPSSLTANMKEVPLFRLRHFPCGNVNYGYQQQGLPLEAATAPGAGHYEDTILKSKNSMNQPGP
ASSAY_EXPLANATION: ALK Kinase Assay (ELISA-type, time-resolved fluorescence)
Assay type: biochemical
SETTINGS: 1 μM ATP (Km level); read-out: ALK Activity (ALK Kinase Inhibition, IC50)
pIC50: −log10 of the molar value.
Here, each record is paired with measured pIC50 data.

Sample records with pIC50:
{"SMI": "COc1cc2c(cc1Nc1ncc(Cl)c(Nc3ccccc3S(=O)(=O)N(C)C)n1)CCN(CC(C)(F)F)CC2", "MEASURED_ATTRIBUTE": "pIC50", "RESULT": "> 7.00"}
{"SMI": "COCCN1CCc2ccc(Nc3ncc(Cl)c(Nc4ccccc4-c4nccn4CCOC)n3)cc2CC1", "MEASURED_ATTRIBUTE": "pIC50", "RESULT": "6.00 to 7.00"}

With those in mind, consider the next compound.
Q) For the compound `COCC(COC)N1CCc2cc(Nc3ncc(Cl)c(Nc4ccccc4S(=O)(=O)N(C)C)n3)c(OC)cc2CC1` , what pIC50 is on record?
A) > 7.00

* * *

MEASUREMENT_TARGET: c-Met (cytoplasmic domain) (Homo sapiens, UniProt P08581)
Construct: 10 ng/mL c-Met (cytoplasmic domain, Invitrogen Corporation #PV3143); purchased Invitrogen Corporation PV3143
Sequence (P08581 956-1390 limits assumed): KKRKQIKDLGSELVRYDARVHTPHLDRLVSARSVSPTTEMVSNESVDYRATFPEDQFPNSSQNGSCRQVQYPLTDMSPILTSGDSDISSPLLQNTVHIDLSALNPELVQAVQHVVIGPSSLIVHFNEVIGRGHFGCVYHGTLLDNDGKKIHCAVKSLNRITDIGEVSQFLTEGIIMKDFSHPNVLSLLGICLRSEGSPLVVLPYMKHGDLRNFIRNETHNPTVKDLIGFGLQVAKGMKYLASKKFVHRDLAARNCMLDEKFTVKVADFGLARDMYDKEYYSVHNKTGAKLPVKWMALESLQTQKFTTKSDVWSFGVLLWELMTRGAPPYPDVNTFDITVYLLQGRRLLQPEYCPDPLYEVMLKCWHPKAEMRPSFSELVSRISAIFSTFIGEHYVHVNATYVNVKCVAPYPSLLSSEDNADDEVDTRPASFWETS
ASSAY_EXPLANATION: c-Met Kinase Assay (same methods as for ALK, with modifications)
Type: biochemical
SETTINGS: c-Met kinase inhibition, 1 μM ATP; read-out: cMet Activity
Here, each record is paired with measured IC50 data.

Sample records with IC50:
{"COMPOUND": "COc1cc2c(cc1Nc1ncc(Cl)c(Nc3ccccc3S(=O)(=O)N3CCC(O)C3)n1)CCN(CCO)CC2 (stereo not drawn)", "IC50": "100 to 1000 nM"}
{"COMPOUND": "Cc1cccc(C(N)=O)c1Nc1nc(Nc2ccc3c(c2)NC(=O)CCC3(C)C)ncc1Cl", "IC50": "100 to 1000 nM"}
{"COMPOUND": "CNC(=O)c1ccccc1N(C)c1nc(Nc2ccc3c(c2)CC(=O)N(C)CC3)ncc1F", "IC50": "> 10000 nM"}

With those in mind, consider the next compound.
Q) For the compound `C#CCNC(=O)c1cccc(F)c1Nc1nc(Nc2ccc3c(c2)OCCCN3C(=O)CN2CCCC2)ncc1Cl` , what IC50 is on record?
A) < 100 nM

* * *

MEASUREMENT_TARGET: c-Met (cytoplasmic domain) (Homo sapiens)
Construct: 10 ng/mL c-Met (cytoplasmic domain, Invitrogen Corporation #PV3143); purchased Invitrogen Corporation PV3143
ASSAY_EXPLANATION: c-Met Kinase Assay (same methods as for ALK, with modifications)
Format: biochemical
SETTINGS: c-Met kinase inhibition, 1 μM ATP (Km level); read-out: cMet Activity
Here, each record is paired with measured IC50 data.

{"COMPOUND": "COc1cc(N2CCOCC2)ccc1Nc1nc(Nc2ccc3c(c2)CCN(C[C@@H](O)C(F)(F)F)CC3)ncc1Cl", "MEASURED_ATTRIBUTE": "IC50", "RESULT": "1000 to 10000 nM"}
{"COMPOUND": "COCCN1CCc2ccc(Nc3ncc(Cl)c(NCC(C)(C)NS(C)(=O)=O)n3)cc2CC1", "MEASURED_ATTRIBUTE": "IC50", "RESULT": "> 10000 nM"}
{"COMPOUND": "C#CCN1CCc2ccc(Nc3ncc(Cl)c(Nc4ccccc4NS(C)(=O)=O)n3)cc2CC1", "MEASURED_ATTRIBUTE": "IC50", "RESULT": "100 to 1000 nM"}
{"COMPOUND": "CNC(=O)c1ccccc1Nc1nc(Nc2ccc3c(c2Br)C2CCC3CN(C(=O)C(F)(F)F)C2)ncc1Cl (stereo not shown)", "MEASURED_ATTRIBUTE": "IC50", "RESULT": "> 10000 nM"}

With those in mind, consider the next compound.
Q) # query: IC50 | item COCCN1CCc2ccc(Nc3ncc(Cl)c(N[C@@H]4[C@H](C(N)=O)[C@@H]5C=C[C@H]4C5)n3)cc2CC1 (relative stereo) | system: c-Met (cytoplasmic domain) (Homo sapiens)
A) 1000 to 10000 nM

This collection of values is drawn from patent US8148391B2.
